meta.source: ChEMBL document CHEMBL1201862

Test system: RPMI-8226
assay.info: NCI tumour cell line growth inhibition, 48 h
Calls of active or inactive are those of the source. No stated cut-off is given here; in the data, active = GI50 up to about 1.1 µM and inactive = higher.
recorded.endpoint: GI50

- compound: "[O-][S@@+]1c2ccc3ccccc3c2N[C@@H]2[C@H]1[C@H]1C=C[C@@H]2C1"
  result.value: "31.6 µM (inactive)"
- compound: "CC(C)CCNC(=O)c1ccc(CNC(=O)/C=C/c2cccc(Oc3ccccc3)c2)cc1"
  result.value: "67.9 µM (inactive)"
- compound: "CC(=O)C12C[C@](C#N)(N3CCCCCC3)C1C=Cc1ccccc12 (stereo not given in full)"
  result.value: "> 100 µM (inactive)"
- compound: "C[N+](C)(C)CCN(Cc1cccs1)c1ccccn1"
  result.value: "> 100 µM (inactive)"
- compound: "O=[N+]([O-])c1ccc(/C=C/c2csnn2)cc1"
  result.value: "> 100 µM (inactive)"
- compound: "C=C(COC(C)=O)CC(OC(C)=O)c1ccccc1 (stereo not given)"
  result.value: "> 100 µM (inactive)"
- compound: "CC(C)/C(Cl)=N\\OC(=O)Nc1ccc(F)cc1F"
  result.value: "4.69 µM (inactive)"
- compound: "Cc1ccc(S(=O)(=O)c2ccc(C)cc2[N+](=O)[O-])c([N+](=O)[O-])c1"
  result.value: "> 100 µM (inactive)"
- compound: "O=C1NCN(c2ccccc2)C12CCN(CC1COc3ccccc3O1)CC2 (stereo not given)"
  result.value: "> 100 µM (inactive)"
- compound: "O=C(O)C12C3CCC(CC3)C1(C(=O)O)C1CCC2C1 (stereo not given)"
  result.value: "> 100 µM (inactive)"

====

Here, each record is paired with measured GI50 data.
System: HCT-15
assay.info: NCI tumour cell line growth inhibition, 48 h
recorded.endpoint: GI50

- compound: "CN1C(c2ccccc2)CC(=NOCc2ccccc2)CC1c1ccccc1 (stereo not drawn)"
  result.value: "23.2 µM"
- compound: "CON(C)C(=O)C(C)NC(=O)OC(C)(C)C (stereo not drawn)"
  result.value: "> 100 µM"
- compound: "C[C@H](CCC(=O)O)[C@H]1CC[C@@]2(C)[C@@H]3C(=O)C[C@H]4C(C)(C)[C@@H](O)CC[C@]4(C)[C@H]3C(=O)C[C@]12C"
  result.value: "> 100 µM"
- compound: "CSc1snc2sc3c(Cl)nnnc3c12"
  result.value: "8.15 µM"
- compound: "COC(=O)c1c(O)ccc2c1c1c(n2Cc2ccccn2)C(=O)c2ccccc2C1"
  result.value: "> 100 µM"
- compound: "CCCCCCCCCCCCCCCCOCC(COP(=O)([O-])OCC[n+]1ccc(N(C)C)cc1)OCC (stereo not drawn)"
  result.value: "18.2 µM"
- compound: "CC(CC[C@@]1(O)OC2C[C@H]3[C@@H]4CC[C@H]5CC(OC6OC(CO)C(OC7OC(CO)C(O)C(OC8OCC(O)C(O)C8O)C7OC7OC(CO)C(O)C(O)C7O)C(O)C6O)[C@H](O)CC5(C)[C@H]4CCC3(C)C2[C@@H]1C)COC1OC(CO)C(O)C(O)C1O (stereo partly drawn)"
  result.value: "20.9 µM"
- compound: "COc1cc([C@@H]2c3cc4c(c(O)c3C[C@H]3COC(=O)[C@@H]32)OCO4)cc(OC)c1OC [BETA-PELTATIN A]"
  result.value: "0.015 µM"

====

System: NCI/ADR-RES
assay.info: NCI tumour cell line growth inhibition, 48 h
Calls of active or inactive are those of the source. No stated cut-off is given here; in the data, active = GI50 up to about 1.1 µM and inactive = higher.
Here, each record is paired with measured GI50 data.
recorded.endpoint: GI50

- compound: "COc1ccc(NC(=O)CSc2nnc(-c3ccc(/N=C\\c4ccc(Cl)cc4)cc3)o2)cc1"
  target.system: "NCI/ADR-RES"
  recorded.endpoint: "GI50"
  result.value: "42.3 µM (inactive)"
- compound: "CCC(=O)NC(Nc1cccc(F)c1C)(C(F)(F)F)C(F)(F)F"
  target.system: "NCI/ADR-RES"
  recorded.endpoint: "GI50"
  result.value: "> 100 µM (inactive)"
- compound: "[O-][S@@+]1c2ccc3ccccc3c2N[C@@H]2[C@H]1[C@H]1C=C[C@@H]2C1"
  target.system: "NCI/ADR-RES"
  recorded.endpoint: "GI50"
  result.value: "25.8 µM (inactive)"
- compound: "CCn1c2c(c3c(C(=O)OC)c(O)ccc31)C(=O)c1ccccc1C2=O"
  target.system: "NCI/ADR-RES"
  recorded.endpoint: "GI50"
  result.value: "16.6 µM (inactive)"
- compound: "OCC(O)COCn1cc(Cn2ncc3c(O)ncnc32)nn1 (centres undefined)"
  target.system: "NCI/ADR-RES"
  recorded.endpoint: "GI50"
  result.value: "> 100 µM (inactive)"
- compound: "CCCCCCCCCCCCCCCCCC(=O)Nc1ccn(C2OC(CO)C(O)C2O)c(=O)n1 (centres undefined)"
  target.system: "NCI/ADR-RES"
  recorded.endpoint: "GI50"
  result.value: "30.5 µM (inactive)"
- compound: "Nc1ccc(OCCCc2c(-c3ccccc3)[nH]c(N)nc2=O)cc1"
  target.system: "NCI/ADR-RES"
  recorded.endpoint: "GI50"
  result.value: "> 100 µM (inactive)"
- compound: "CC(CN(C)C)C(=O)/C=C/c1ccc(Cl)c(Cl)c1 (centres undefined)"
  target.system: "NCI/ADR-RES"
  recorded.endpoint: "GI50"
  result.value: "3.52 µM (inactive)"
- compound: "CC1=CC(=O)/C(=C(/C)NCCN(CCN/C(C)=C2\\C(=O)C=C(C)OC2=O)CCN/C(C)=C2\\C(=O)C=C(C)OC2=O)C(=O)O1"
  target.system: "NCI/ADR-RES"
  recorded.endpoint: "GI50"
  result.value: "> 100 µM (inactive)"

====

System: CCRF-CEM
assay.info: NCI tumour cell line growth inhibition, 48 h
Active and inactive are the calls of the source. No stated cut-off is given here; in the data, active = GI50 up to about 1.1 µM and inactive = higher.
Here, each record is paired with measured GI50 data.

- compound: "O=C(O)c1ccccc1NC(=O)C1CCCCC1"
  GI50: "> 100 µM (inactive)"
- compound: "CCCCCCCCCCCCCCCCOCC(COP(=O)([O-])OCC[n+]1ccc(N(C)C)cc1)OCC (configuration not stated)"
  GI50: "10.5 µM (inactive)"
- compound: "C#C[C@]1(O)CC[C@H]2[C@@H]3CCC4=C/C(=N/OC(=O)c5cccc6c(=O)c7ccccc7[nH]c56)CCC4[C@H]3CC[C@@]21CC (some centres not stated)"
  GI50: "8.05 µM (inactive)"
- compound: "CCCC[C@@H]1CCN2C[C@@H](O)[C@@H](O)[C@@H]2[C@H]1O"
  GI50: "> 100 µM (inactive)"
- compound: "O=C(O)C12CCCC(CCC1)C2"
  GI50: "> 100 µM (inactive)"
- compound: "Cc1cccc(C(C)C)c1NC(=O)CC1Sc2ccccc2NC1=O (configuration not stated)"
  GI50: "> 100 µM (inactive)"
- compound: "C[C@@H]1OC2(O)[C@H]3CCCN3S(=O)(=O)CCN2C1=O (some centres not stated)"
  GI50: "> 100 µM (inactive)"
- compound: "CN1C(c2ccccc2)CC(=NOCc2ccccc2)CC1c1ccccc1 (configuration not stated)"
  GI50: "11.6 µM (inactive)"
- compound: "O=C1CCC(c2ccccc2)C(O)(C(=O)O)C1 (configuration not stated)"
  GI50: "> 100 µM (inactive)"
- compound: "CNC(=S)N(C1CCCCC1)C1CCCCC1"
  GI50: "33.1 µM (inactive)"
- compound: "C=CCC(C(=O)OC)C1(C(=O)OC)c2[nH]c3ccccc3c2CCN1Cc1ccccc1 (configuration not stated)"
  GI50: "29.8 µM (inactive)"
- compound: "CCC1(N=[N+]=[N-])C(=O)c2ccccc2N(C)C1=O (configuration not stated)"
  GI50: "> 100 µM (inactive)"
- compound: "CN(C)CCCNC(CC#N)CCC#N (configuration not stated)"
  GI50: "> 10 µM (inactive)"
- compound: "C#Cc1cccc(NC(=O)/C=C\\C(=O)O)c1"
  GI50: "> 100 µM (inactive)"
- compound: "O=c1[nH]nc(Cc2ccccc2)n1C1CC1"
  GI50: "> 100 µM (inactive)"
- compound: "O=C1N(c2ccccc2)C(=S)/C(=C/c2ccc(Cl)cc2)N1c1ccc(Cl)cc1"
  GI50: "18.1 µM (inactive)"
- compound: "COc1cccc(C2c3cc4c(cc3OC(O)C2C)OCO4)c1OC (configuration not stated)"
  GI50: "2.61 µM (inactive)"
- compound: "COC(=O)C1=C(OC(=O)/C(=C/c2c(F)cccc2F)c2ccccc2)C(C(=O)OC)[C@@]2(O)[C@@H](C(=O)OC)[C@H](C)C[C@@H]1[C@@H]2C(=O)OC (some centres not stated)"
  GI50: "> 100 µM (inactive)"
- compound: "c1cc(CSc2ncnc3[nH]cnc23)ccn1"
  GI50: "66.8 µM (inactive)"
- compound: "O=C1NC(N2CCOCC2)=N/C1=C\\c1ccco1"
  GI50: "> 100 µM (inactive)"
- compound: "O=Nc1c(-c2c(O)[nH]c3ccccc23)[nH]c2ccccc12"
  GI50: "4.4 µM (inactive)"
- compound: "Cc1c(S(=O)(=O)c2ccccc2)c(N)n(Cc2ccccc2)c1C"
  GI50: "> 100 µM (inactive)"
